The measurements presented in this section are drawn from BindingDB's records for doi:10.7270/Q2N58K09.

# subject of test: Huntingtin (Homo sapiens)
# Sequence (P42858 whole entry): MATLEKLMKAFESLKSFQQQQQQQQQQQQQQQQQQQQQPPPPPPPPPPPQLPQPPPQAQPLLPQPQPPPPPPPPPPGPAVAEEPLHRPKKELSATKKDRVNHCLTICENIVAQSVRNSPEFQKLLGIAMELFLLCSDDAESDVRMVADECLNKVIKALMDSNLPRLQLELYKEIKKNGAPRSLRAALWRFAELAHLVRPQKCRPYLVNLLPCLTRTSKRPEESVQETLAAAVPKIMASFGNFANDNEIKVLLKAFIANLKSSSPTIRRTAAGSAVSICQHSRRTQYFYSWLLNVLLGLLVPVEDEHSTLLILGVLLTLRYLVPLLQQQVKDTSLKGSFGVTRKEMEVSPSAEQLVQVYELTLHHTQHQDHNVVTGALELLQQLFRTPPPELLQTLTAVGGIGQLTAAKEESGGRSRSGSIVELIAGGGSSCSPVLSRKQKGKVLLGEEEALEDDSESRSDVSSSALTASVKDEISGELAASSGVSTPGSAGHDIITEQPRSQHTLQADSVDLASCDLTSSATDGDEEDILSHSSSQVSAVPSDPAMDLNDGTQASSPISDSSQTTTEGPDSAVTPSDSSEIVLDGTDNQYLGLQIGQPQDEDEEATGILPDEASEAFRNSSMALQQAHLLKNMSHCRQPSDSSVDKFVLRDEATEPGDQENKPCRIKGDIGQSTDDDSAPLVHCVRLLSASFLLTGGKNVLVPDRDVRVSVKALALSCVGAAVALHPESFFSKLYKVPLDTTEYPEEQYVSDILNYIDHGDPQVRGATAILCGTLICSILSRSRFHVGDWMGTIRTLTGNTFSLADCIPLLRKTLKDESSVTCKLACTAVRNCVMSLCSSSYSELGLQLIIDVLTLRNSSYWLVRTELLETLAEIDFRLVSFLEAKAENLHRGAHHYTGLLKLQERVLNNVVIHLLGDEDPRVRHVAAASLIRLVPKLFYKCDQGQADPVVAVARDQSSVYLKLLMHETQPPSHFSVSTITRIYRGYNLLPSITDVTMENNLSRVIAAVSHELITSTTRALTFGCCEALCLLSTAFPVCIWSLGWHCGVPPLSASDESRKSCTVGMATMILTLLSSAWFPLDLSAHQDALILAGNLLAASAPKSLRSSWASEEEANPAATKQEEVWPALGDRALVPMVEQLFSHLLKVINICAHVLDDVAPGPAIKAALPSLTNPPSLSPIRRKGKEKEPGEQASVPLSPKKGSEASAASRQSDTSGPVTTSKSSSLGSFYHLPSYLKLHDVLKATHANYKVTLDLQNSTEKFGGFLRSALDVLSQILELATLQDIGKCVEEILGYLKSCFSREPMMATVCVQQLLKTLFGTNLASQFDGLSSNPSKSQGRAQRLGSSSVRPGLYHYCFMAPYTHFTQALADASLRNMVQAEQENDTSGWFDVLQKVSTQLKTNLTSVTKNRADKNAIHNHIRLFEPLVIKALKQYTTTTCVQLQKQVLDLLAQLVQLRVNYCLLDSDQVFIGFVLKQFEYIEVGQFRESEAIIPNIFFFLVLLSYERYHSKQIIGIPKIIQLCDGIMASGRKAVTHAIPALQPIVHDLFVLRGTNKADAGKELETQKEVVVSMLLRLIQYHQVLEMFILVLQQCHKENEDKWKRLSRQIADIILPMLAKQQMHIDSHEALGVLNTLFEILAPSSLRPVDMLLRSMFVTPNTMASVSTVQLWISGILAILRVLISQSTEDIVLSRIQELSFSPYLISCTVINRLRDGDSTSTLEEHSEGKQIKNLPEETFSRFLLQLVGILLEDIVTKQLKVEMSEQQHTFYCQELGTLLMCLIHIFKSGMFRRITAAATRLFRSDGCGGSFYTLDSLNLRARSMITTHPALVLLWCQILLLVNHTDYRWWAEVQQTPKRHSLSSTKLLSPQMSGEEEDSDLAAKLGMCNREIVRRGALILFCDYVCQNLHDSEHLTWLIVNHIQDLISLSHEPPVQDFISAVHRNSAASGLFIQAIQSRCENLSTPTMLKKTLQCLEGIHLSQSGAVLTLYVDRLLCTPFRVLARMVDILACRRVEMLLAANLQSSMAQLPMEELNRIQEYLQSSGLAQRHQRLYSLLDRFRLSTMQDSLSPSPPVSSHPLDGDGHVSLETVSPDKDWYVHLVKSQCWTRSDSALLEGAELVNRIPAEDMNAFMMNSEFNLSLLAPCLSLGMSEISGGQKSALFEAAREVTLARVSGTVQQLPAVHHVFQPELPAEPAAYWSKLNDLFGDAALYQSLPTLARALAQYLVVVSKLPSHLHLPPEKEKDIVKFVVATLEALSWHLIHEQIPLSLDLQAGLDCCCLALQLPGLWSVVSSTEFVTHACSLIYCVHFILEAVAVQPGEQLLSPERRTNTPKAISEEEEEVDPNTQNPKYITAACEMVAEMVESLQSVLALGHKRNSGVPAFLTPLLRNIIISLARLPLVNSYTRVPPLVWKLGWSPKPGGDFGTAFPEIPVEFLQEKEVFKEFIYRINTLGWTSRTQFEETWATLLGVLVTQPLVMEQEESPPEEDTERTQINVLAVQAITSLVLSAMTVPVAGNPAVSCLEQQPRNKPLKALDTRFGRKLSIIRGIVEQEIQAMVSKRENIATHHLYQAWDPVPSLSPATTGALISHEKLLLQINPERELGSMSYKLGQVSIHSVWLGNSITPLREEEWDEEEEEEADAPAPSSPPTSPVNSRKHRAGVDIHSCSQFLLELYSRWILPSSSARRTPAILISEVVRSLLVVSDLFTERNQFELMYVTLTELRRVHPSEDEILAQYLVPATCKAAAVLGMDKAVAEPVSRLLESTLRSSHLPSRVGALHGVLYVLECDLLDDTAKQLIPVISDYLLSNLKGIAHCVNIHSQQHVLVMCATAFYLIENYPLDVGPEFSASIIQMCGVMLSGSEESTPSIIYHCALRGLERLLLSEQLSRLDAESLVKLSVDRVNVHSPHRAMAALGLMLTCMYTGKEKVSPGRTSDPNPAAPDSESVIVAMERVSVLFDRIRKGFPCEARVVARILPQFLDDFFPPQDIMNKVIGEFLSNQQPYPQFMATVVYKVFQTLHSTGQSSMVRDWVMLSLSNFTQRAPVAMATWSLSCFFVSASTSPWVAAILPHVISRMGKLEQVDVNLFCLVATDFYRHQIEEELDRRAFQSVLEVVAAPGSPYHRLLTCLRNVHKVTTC
pIC50: −log10 of the molar value.
Collected pIC50 values appear next to each entry.
measured quantity: pIC50

N=C(NN=Cc1cccs1)Sc1cc(O)n(-c2ccc(Br)cc2)c1O: 5.08
CC(C)c1ccc(C2c3[nH]c4ccccc4c3Cc3c(O)n(-c4ccccc4C(=O)N4CCC[C@H]4C(=O)O)c(=O)n32)cc1 (stereo not given in full): 5.47
CC(C)c1ccc(C2c3[nH]c4ccccc4c3Cc3c(O)n(-c4ccccc4C(=O)N4CCC[C@@H]4C(=O)O)c(=O)n32)cc1 (stereo not given in full): 5.55
CCOC(=O)C1=C(C)N=C(SCc2cc(=O)[nH][nH]2)C(C#N)C1c1cccs1 (stereo not given): 5.13
CCN(CC)C(=O)NC1CC2CCCC(C1)N2Cc1ccccc1 (stereo not given): 5.55
